- EXPERIMENT DESCRIPTION: Aqueous solubility of the compound in phosphate buffered saline at pH 7.0 at 10 mM by turbidimetric method
RESULT TYPE: solubility kinetic at 10000 µM

compound="Cc1nn(-c2ncnc3nc[nH]c23)c2c1C(c1ccc(F)cc1Cl)CC(=O)N2 (stereo unspecified)" result_type="solubility kinetic at 10000 µM" observed="65 µM"

---

- TARGET UNDER TEST: G-protein coupled receptor 39 (Homo sapiens, UniProt O43194)
- Sequence (O43194 whole entry): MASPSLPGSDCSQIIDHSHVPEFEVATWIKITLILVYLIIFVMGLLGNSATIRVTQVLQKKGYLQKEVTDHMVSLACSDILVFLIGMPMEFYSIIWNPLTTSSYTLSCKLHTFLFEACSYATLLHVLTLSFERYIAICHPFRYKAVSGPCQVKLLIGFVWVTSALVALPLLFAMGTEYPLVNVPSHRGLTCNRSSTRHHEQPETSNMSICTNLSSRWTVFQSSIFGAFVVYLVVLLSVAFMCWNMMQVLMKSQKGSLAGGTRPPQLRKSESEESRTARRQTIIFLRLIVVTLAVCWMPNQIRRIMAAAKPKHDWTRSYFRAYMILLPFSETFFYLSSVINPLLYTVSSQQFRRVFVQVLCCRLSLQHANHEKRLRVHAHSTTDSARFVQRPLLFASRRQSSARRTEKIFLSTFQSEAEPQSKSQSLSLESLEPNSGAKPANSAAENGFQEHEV
- EXPERIMENT DESCRIPTION: Agonist activity at GPR39 (unknown origin) expressed in COS7 cells co-expressing Galphas assessed as increase in intracellular cAMP level in presence of 3 uM Zn2+ measured after 30 mins by chemiluminescence assay
- Assay type: functional, cell-based
pEC50: −log10 of the molar value.
RESULT TYPE: pEC50

compound="Cc1nn(-c2ncnc3nc[nH]c23)c2c1C(OCc1cc(F)cc3c1OCOC3)CC(=O)N2 (configuration not stated)" observed=7.92
compound="Cc1nn(-c2ncnc3nc[nH]c23)c2c1C(c1ccc(F)cc1Cl)CC(=O)N2 (configuration not stated)" observed=7.77
